Where these numbers come from: ChEMBL document CHEMBL3046138

The listing below reports pIC50 for compounds tested on Trans-cinnamate 4-monooxygenase (Populus kitakamiensis, UniProt Q43054).
Sequence (Q43054 whole entry): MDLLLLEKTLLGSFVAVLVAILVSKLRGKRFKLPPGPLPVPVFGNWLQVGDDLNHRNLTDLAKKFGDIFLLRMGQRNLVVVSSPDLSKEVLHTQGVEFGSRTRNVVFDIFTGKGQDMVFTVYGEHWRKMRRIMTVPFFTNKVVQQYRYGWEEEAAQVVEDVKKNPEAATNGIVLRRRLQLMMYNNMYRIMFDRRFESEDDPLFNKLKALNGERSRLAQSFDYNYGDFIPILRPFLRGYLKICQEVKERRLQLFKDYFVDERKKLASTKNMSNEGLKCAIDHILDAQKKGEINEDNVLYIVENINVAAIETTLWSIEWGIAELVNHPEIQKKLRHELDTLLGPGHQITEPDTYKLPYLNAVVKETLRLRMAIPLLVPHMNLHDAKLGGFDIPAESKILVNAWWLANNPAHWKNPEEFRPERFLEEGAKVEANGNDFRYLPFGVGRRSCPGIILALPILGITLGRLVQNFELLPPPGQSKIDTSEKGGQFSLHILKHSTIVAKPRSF
pIC50: −log10 of the molar value.
observation-type: pIC50

Completed entries (count: 3):
structure-string: Fc1cccc(-c2nnc(S)o2)c1
assayed-system: Trans-cinnamate 4-monooxygenase (Populus kitakamiensis, UniProt Q43054)
measured-result: 6.89
--
structure-string: S=c1[nH]nc(-c2ccc(Cl)cc2)o1
assayed-system: Trans-cinnamate 4-monooxygenase (Populus kitakamiensis, UniProt Q43054)
measured-result: 4.64
--
structure-string: Sc1nnc(-c2ccccc2Cl)o1
assayed-system: Trans-cinnamate 4-monooxygenase (Populus kitakamiensis, UniProt Q43054)
measured-result: 6.17

[1] Sc1nnc(-c2cc(Cl)ccc2Cl)o1
[2] Cc1ccccc1-c1nnc(S)o1
Enquiry: Return label of the item with the larger pIC50. Candidates: 1 , 2 . Indicate your choice by writing its label.
Return: 2
(2: 6.30, 1: 5.70)
